Origin of values: patent US11638712B2

Biological target: KLK8 (Homo sapiens, UniProt O60259)
Sequence (O60259 33-260, species assumed): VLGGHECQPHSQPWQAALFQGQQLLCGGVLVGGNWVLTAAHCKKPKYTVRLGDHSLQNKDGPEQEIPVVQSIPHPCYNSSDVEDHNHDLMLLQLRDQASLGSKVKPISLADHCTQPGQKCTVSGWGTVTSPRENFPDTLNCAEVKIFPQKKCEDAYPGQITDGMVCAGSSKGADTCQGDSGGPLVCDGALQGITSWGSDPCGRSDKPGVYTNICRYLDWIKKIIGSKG
Test: in vitro serine protease inhibition profile: KLK8
Format: biochemical
Details: read-out: IC50 KLK8
pIC50: −log10 of the molar value.
READOUT TYPE: pIC50

Request: Please give measured pIC50 of the following entry: N=C(N)c1ccc2cc(OC(=O)c3ccc(N=C(N)N)cc3)ccc2c1 [Nafamostat]
Response: ~7.82

###

Molecular target: KLK8 (Homo sapiens)
Experiment: in vitro serine protease inhibition profile: KLK8
Assay type: biochemical
READOUT TYPE: pIC50
Reminder that pIC50 is minus the log10 of a molar concentration.

Examples with their reported pIC50 follow.
N=C(N)Nc1ccc(CC(NC(=O)OCc2ccccc2)P(=O)(Oc2ccccc2)Oc2ccccc2)cc1 (stereo not shown): 7.38
CC(=O)Nc1ccc(OP(=O)(Oc2ccc(NC(C)=O)cc2)C(Cc2ccc(NC(=N)N)cc2)NC(=O)OCc2ccccc2)cc1 (stereo not shown): 8.70
COC(=O)NC(Cc1ccc(NC(=N)N)cc1)P(=O)(Oc1ccc(NC(C)=O)cc1)Oc1ccc(NC(C)=O)cc1 (stereo not shown): 7.89

# next compound below
Request: Please give measured pIC50 of the following entry: COC(=O)NC(Cc1ccc(NC(=N)N)cc1)P(=O)(Oc1ccccc1)Oc1ccccc1 (stereo not shown)
Response: 7.55

###

IC50: recorded values
Target: UniProtKB P00749
Assay: in vitro serine protease inhibition profile: uPA
Type: biochemical
Number only, in nM; omit the unit.

CC(=O)Nc1ccc(OP(=O)(Oc2ccc(NC(C)=O)cc2)C(Cc2ccc(NC(=N)N)cc2)NC(=O)OCc2ccccc2)cc1 (centres unmarked): 2

# next compound below
Request: Please give measured IC50 of the following entry: COC(=O)NC(Cc1ccc(NC(=N)N)cc1)P(=O)(Oc1ccccc1)Oc1ccccc1 (centres unmarked)
Response: 4

###

Biological target: UniProt Q15661
Sequence (Q15661 31-275): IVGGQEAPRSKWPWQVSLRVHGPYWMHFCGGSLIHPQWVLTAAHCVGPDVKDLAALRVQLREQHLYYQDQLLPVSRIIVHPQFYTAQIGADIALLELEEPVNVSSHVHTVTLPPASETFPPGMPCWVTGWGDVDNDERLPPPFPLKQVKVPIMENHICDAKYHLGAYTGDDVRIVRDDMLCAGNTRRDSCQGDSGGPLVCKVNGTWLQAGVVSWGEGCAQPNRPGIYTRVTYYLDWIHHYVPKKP
Assay: in vitro serine protease inhibition profile: tryptase
Format: biochemical
Conditions: read-out: IC50 tryptase
pIC50: −log10 of the molar value.
READOUT TYPE: pIC50

Request: Please give measured pIC50 of the following entry: N=C(N)c1ccc2cc(OC(=O)c3ccc(N=C(N)N)cc3)ccc2c1
Response: > 9.00

###

Target: thrombin (Homo sapiens, UniProt P00734)
Construct: panel of serine proteases: uPA, tPA, thrombin, plasmin, FXIIa
Assay: in vitro serine protease inhibition profile: thrombin
Assay type: biochemical
READOUT TYPE: IC50 (nM)
Number only, in nM; omit the unit.

Request: Give IC50; test system thrombin (Homo sapiens, UniProt P00734); compound CC(=O)Nc1ccc(OP(=O)(Oc2ccc(NC(C)=O)cc2)C(Cc2ccc(NC(=N)N)cc2)NC(=O)OCc2ccccc2)cc1 (centres unmarked) [Compound 4]
Response: 257
